# reported switch fluorescence ratio; entries follow
System: ATP;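 also: ATP exposure 15 min at 22 °C before imaging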
Experiment: switch fluorescence ratio, 500 uM ATP over buffer (Cy3 cluster intensity, sum of 5 cycles each) (fold (ratio)); higher = stronger signal-on switching upon ATP binding; sequences stand for … in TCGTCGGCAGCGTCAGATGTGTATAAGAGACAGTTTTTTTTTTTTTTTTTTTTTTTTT…TC
Details: aptamer strand: ATP DNA aptamer (quencher-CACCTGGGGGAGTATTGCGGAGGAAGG + anchor), 100 nM annealed; ATP concentration: 500 uM
I only need the number, thanks.

Some sequences with recorded switch fluorescence ratio:
ordered_residues	experimental_result
CGCTACGGAG	1.02
GGGTGCATAG	1.03
GCAGGCTACA	1.02

Qu. Need switch fluorescence ratio of "AGTTAGTCTG" , thanks.
Ans. 1.01

Qu. Need switch fluorescence ratio of "TTTAGGGTTG" , thanks.
Ans. 0.988

Qu. Need switch fluorescence ratio of "GCCGCGAAGG" , thanks.
Ans. 1.02

Reference for the values: the supplement of paper PMC10126150
